tested_target: T1, NaPi2b expressed on IGROV-1 cells (Homo sapiens, UniProt O95436)
T1 construct: IGROV-1 cells express endogenous NaPi2b at a high level; endogenous in cells; host or cells: IGROV-1
T1 sequence (O95436 1-690): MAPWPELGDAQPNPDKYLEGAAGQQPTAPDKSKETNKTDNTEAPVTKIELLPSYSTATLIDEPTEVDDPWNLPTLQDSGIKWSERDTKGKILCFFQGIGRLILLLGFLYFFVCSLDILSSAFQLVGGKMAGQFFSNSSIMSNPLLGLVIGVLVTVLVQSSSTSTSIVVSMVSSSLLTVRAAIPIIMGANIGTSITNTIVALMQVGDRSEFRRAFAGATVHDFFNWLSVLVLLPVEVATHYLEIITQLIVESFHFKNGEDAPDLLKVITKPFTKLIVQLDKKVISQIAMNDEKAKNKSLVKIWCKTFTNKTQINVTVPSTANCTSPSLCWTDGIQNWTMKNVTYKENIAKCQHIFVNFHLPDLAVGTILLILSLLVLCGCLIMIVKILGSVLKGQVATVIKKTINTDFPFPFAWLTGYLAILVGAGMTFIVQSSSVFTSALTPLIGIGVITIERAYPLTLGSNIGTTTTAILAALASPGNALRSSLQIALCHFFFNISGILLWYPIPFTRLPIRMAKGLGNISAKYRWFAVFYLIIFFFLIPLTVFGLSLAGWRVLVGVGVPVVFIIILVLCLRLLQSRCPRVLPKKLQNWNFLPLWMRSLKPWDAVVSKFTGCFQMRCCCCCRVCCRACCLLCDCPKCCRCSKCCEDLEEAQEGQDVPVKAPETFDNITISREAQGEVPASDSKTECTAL
procedure_details: Cellular binding of bivalent antibodies to IGROV-1 cells by flow cytometry (Example 13)
cond: IGROV-1, 24 hours at 4° C.; NB = no cellular binding
outcome_measure: Curve Hill Slope (h)
Respond with the number and no other words.

# molecule, Curve Hill Slope (h)
measured = [
    ("v29457: humanized anti-NaPi2b IgG1/kappa antibody H4L1; VH SEQ ID NO:27, VL SEQ ID NO:28 (antibody, V domains shown, v29449, v29453, v29457 VH (H4); v29457, v29458, v29459, v29460 VL (L1)) VH: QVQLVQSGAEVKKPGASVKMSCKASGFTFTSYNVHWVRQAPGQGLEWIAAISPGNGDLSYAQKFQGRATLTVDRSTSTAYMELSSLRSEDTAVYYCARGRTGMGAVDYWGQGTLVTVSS VL: DIQMTQSPSSLSASVGDRVTITCRASQDVYSYLNWYQQKPGKAPKLLIYYTSRLQSGVPSRFSGSGSGTDFTLTISSLQPEDFATYYCQQYNIFPWTFGQGTKLEIK", 1.0),
]

Now consider the entry below.
Problem: Entry under review: v29450: humanized anti-NaPi2b IgG1/kappa antibody H3L3; VH SEQ ID NO:26, VL SEQ ID NO:30 (antibody, V domains shown, v29450, v29454, v29458 VH (H3); v29449, v29450, v29451, v29452 VL (L3)) VH: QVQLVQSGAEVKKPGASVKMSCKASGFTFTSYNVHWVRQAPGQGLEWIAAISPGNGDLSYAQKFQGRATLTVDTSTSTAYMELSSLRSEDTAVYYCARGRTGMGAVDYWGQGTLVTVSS VL: DVQMTQSPSSLSASVGDRVTITCRASQDVYSYLNWYQQKPGKAVKLLIYYTSRLQSGVPSRFSGSGSGTDYTLTISSLQPEDIATYYCQQYNIFPWTFGQGTKLEIK . Reported Curve Hill Slope (h)?
Result: 1.2
